# credit: ChEMBL document CHEMBL3885861

organism: Rattus norvegicus; test: Open TG-GATES - Regimen: Single; assay type: toxicity, organism-based, Sprague-Dawley; set-up: regimen Single, gender Male, age 6 weeks; conditions: in vivo, po, 0 mg/kg, 9 h, tissue Blood, route gavage, dose level Control
Rule: Fbg under 300 mg/dL gives false (0), otherwise true (1).

Input line: Reported Fbg reaches at least 300 mg/dL for Cc1cccc(C)c1OCC(C)N (stereo not given) [MEXILETINE] ?
Output line: true (1)

Input line: Moving on to OCCN1CCN(CCCN2c3ccccc3Sc3ccc(C(F)(F)F)cc32)CC1 [FLUPHENAZINE]
Output line: false (0)

Input line: Same thing, different molecule: O=[N+]([O-])c1ccc(O)c([N+](=O)[O-])c1 [2,4-DINITROPHENOL]
Output line: false (0)

###

Give measured ALT for each item. Keep answers brief.
species on record: Rattus norvegicus; assay: Open TG-GATES - Regimen: Single; format: toxicity, organism-based, Sprague-Dawley; set-up: regimen Single, gender Male, age 6 weeks; conditions: in vivo, po, 0 mg/kg, 6 h, tissue Plasma, route gavage, dose level Control
A number alone suffices; assume IU/L.

Input line: So what's the measured ALT for this one? Cn1cc[nH]c1=S [METHIMAZOLE]
Output line: 47.2

Input line: And for O=[N+]([O-])c1ccc(O)c([N+](=O)[O-])c1 [2,4-DINITROPHENOL] ?
Output line: 36.4

Input line: Entry Cc1cccc(C)c1OCC(C)N (centres undefined) [MEXILETINE] please
Output line: 37.4

Input line: Input C[C@H]1O[C@H](O[C@H]2[C@H](O)[C@@H](O)[C@@H](O[C@H]3[C@H](O)[C@@H](O)C(O)O[C@@H]3CO)O[C@@H]2CO)[C@H](O)[C@@H](O)[C@@H]1N[C@H]1C=C(CO)[C@@H](O)[C@H](O)[C@H]1O (some centres undefined) [ACARBOSE]
Output line: 35.2

Input line: What do you get for Cc1ccc2cc3c(ccc4ccccc43)c3c2c1CC3 [3-METHYLCHOLANTHRENE] ?
Output line: 38

Input line: Same read-out for OCCN1CCN(CCCN2c3ccccc3Sc3ccc(C(F)(F)F)cc32)CC1 [FLUPHENAZINE] ?
Output line: 33.6

Input line: Please answer likewise for CCOC(=O)C(C)(C)Oc1ccc(Cl)cc1 [CLOFIBRATE]
Output line: 31.2

Input line: Then C=C(C)[C@H]1Cc2c(ccc3c2O[C@@H]2COc4cc(OC)c(OC)cc4[C@@H]2C3=O)O1 [ROTENONE] ?
Output line: 35.4

Input line: What do you get for C[C@H]1C(=O)O[C@@H]2CCN3CC=C(COC(=O)[C@](C)(O)[C@]1(C)O)[C@H]23 [MONOCROTALINE] ?
Output line: 37.6

###

species: Rattus norvegicus; assay: Open TG-GATES - Regimen: Daily Repeat; type: toxicity, organism-based, Sprague-Dawley; design: regimen Daily Repeat, gender Male, age 6 weeks; details: in vivo, po, 0 mg/kg, 72 h, tissue Plasma, route gavage, dose level Control, time 3 day
quantityName: DBIL (mg/dL)
A number alone suffices; assume mg/dL.

Input line: For the compound shown here, CCOC(=O)C(C)(C)Oc1ccc(Cl)cc1 [CLOFIBRATE] , give the reported DBIL.
Output line: 0.088

Input line: What would you report for Cc1cccc(C)c1OCC(C)N (stereo not given) ?
Output line: 0

Input line: And then C[C@H]1O[C@H](O[C@H]2[C@H](O)[C@@H](O)[C@@H](O[C@H]3[C@H](O)[C@@H](O)C(O)O[C@@H]3CO)O[C@@H]2CO)[C@H](O)[C@@H](O)[C@@H]1N[C@H]1C=C(CO)[C@@H](O)[C@H](O)[C@H]1O (stereo not given in full) , what is it?
Output line: 0.006

Input line: Now consider `OCCN1CCN(CCCN2c3ccccc3Sc3ccc(C(F)(F)F)cc32)CC1` and answer again.
Output line: 0.035

Input line: Also check `Cn1cc[nH]c1=S`
Output line: 0.002

###

organism: Rattus norvegicus; assay: Open TG-GATES - Regimen: Daily Repeat; format: toxicity, organism-based, Sprague-Dawley; set-up: regimen Daily Repeat, gender Male, age 6 weeks; details: in vivo, po, 0 mg/kg, 72 h, tissue Blood, route gavage, dose level Control, time 3 day
Provide the recorded PT for the entries that follow.
Hi! Could you send only the number? It should be in s, unit omitted.

Input line: What value of PT has been recorded for this entry: `OCCN1CCN(CCCN2c3ccccc3Sc3ccc(C(F)(F)F)cc32)CC1`
Output line: 12

Input line: Query CCOC(=O)C(C)(C)Oc1ccc(Cl)cc1 [CLOFIBRATE] next
Output line: 12.2

Input line: Then `C=C(C)[C@H]1Cc2c(ccc3c2O[C@@H]2COc4cc(OC)c(OC)cc4[C@@H]2C3=O)O1` ?
Output line: 11.8

Input line: What do you get for `O=C1CN(/N=C/c2ccc([N+](=O)[O-])o2)C(=O)N1` ?
Output line: 12.3

Input line: Then this compound: `Cn1cc[nH]c1=S`
Output line: 16.2

Input line: Field entry: `C[C@H]1C(=O)O[C@@H]2CCN3CC=C(COC(=O)[C@](C)(O)[C@]1(C)O)[C@H]23`
Output line: 15.8

Input line: Queued: C[C@H]1O[C@H](O[C@H]2[C@H](O)[C@@H](O)[C@@H](O[C@H]3[C@H](O)[C@@H](O)C(O)O[C@@H]3CO)O[C@@H]2CO)[C@H](O)[C@@H](O)[C@@H]1N[C@H]1C=C(CO)[C@@H](O)[C@H](O)[C@H]1O (some centres undefined)
Output line: 13

Input line: What about this compound? `O=[N+]([O-])c1ccc(O)c([N+](=O)[O-])c1`
Output line: 11.6

Input line: Could you do the same for Cc1cccc(C)c1OCC(C)N (centres undefined) , please?
Output line: 15.8

###

species on record: Rattus norvegicus; experiment: Open TG-GATES - Regimen: Single; assay type: toxicity, organism-based, Sprague-Dawley; set-up: regimen Single, gender Male, age 6 weeks; details: in vivo, po, 0 mg/kg, 9 h, tissue Plasma, route gavage, dose level Control
Can you tell me ALT for the items I'm about to list?
Report the figure in IU/L without appending any unit label.

Input line: State the recorded ALT for this entry: C[C@H]1C(=O)O[C@@H]2CCN3CC=C(COC(=O)[C@](C)(O)[C@]1(C)O)[C@H]23 [MONOCROTALINE]
Output line: 38

Input line: Try this compound next: OCCN1CCN(CCCN2c3ccccc3Sc3ccc(C(F)(F)F)cc32)CC1 [FLUPHENAZINE]
Output line: 29.2

Input line: Please answer likewise for O=[N+]([O-])c1ccc(O)c([N+](=O)[O-])c1 [2,4-DINITROPHENOL]
Output line: 32.8

Input line: Next compound up: Cn1cc[nH]c1=S [METHIMAZOLE]
Output line: 40.2

Input line: Now consider Cc1cccc(C)c1OCC(C)N (stereo not given) [MEXILETINE] .
Output line: 35.6

###

species: Rattus norvegicus; assay: Open TG-GATES - Regimen: Daily Repeat; assay type: toxicity, organism-based, Sprague-Dawley; design: regimen Daily Repeat, gender Male, age 6 weeks; settings: in vivo, po, 0 mg/kg, 72 h, tissue Plasma, route gavage, dose level Control, time 3 day
quantityName: gamma-GTP (IU/L)
Please respond with the number in IU/L and leave the unit unwritten.

Input line: Item O=C1CN(/N=C/c2ccc([N+](=O)[O-])o2)C(=O)N1 [NITROFURANTOIN] has what recorded gamma-GTP?
Output line: 1

Input line: Another compound: CCOC(=O)C(C)(C)Oc1ccc(Cl)cc1 [CLOFIBRATE]
Output line: 1.2

Input line: Okay, and O=[N+]([O-])c1ccc(O)c([N+](=O)[O-])c1 [2,4-DINITROPHENOL] ?
Output line: 0.8

Input line: Cc1cccc(C)c1OCC(C)N (stereo not given) [MEXILETINE] ?
Output line: 2.2

Input line: Entry to check: C[C@H]1C(=O)O[C@@H]2CCN3CC=C(COC(=O)[C@](C)(O)[C@]1(C)O)[C@H]23 [MONOCROTALINE]
Output line: 1.2

###

Hi there, I'd appreciate the recorded TP for every entry that follows.
organism: Rattus norvegicus; assay: Open TG-GATES - Regimen: Single; type: toxicity, organism-based, Sprague-Dawley; set-up: regimen Single, gender Male, age 6 weeks; conditions: in vivo, po, 0 mg/kg, 3 h, tissue Plasma, route gavage, dose level Control
Record the value in g/dL, omitting the unit from your answer.

Input line: Query (compound): CCOC(=O)C(C)(C)Oc1ccc(Cl)cc1 [CLOFIBRATE] ; field requested: TP
Output line: 5.8

Input line: Also `C=C(C)[C@H]1Cc2c(ccc3c2O[C@@H]2COc4cc(OC)c(OC)cc4[C@@H]2C3=O)O1` ?
Output line: 5.3

Input line: Proceed to C[C@H]1O[C@H](O[C@H]2[C@H](O)[C@@H](O)[C@@H](O[C@H]3[C@H](O)[C@@H](O)C(O)O[C@@H]3CO)O[C@@H]2CO)[C@H](O)[C@@H](O)[C@@H]1N[C@H]1C=C(CO)[C@@H](O)[C@H](O)[C@H]1O (some centres undefined)
Output line: 5.2

Input line: Note, next up: `OCCN1CCN(CCCN2c3ccccc3Sc3ccc(C(F)(F)F)cc32)CC1`
Output line: 5.5

Input line: Item: `C[C@H]1C(=O)O[C@@H]2CCN3CC=C(COC(=O)[C@](C)(O)[C@]1(C)O)[C@H]23`
Output line: 5.4

Input line: Also, `Cc1ccc2cc3c(ccc4ccccc43)c3c2c1CC3` please.
Output line: 5.6

Input line: Could you do the same for `Cn1cc[nH]c1=S` , please?
Output line: 5.4

Input line: Likewise for Cc1cccc(C)c1OCC(C)N (centres undefined) ?
Output line: 5.5

Input line: Note, next up: `O=[N+]([O-])c1ccc(O)c([N+](=O)[O-])c1`
Output line: 5.3
